Assay: Endometriosis mouse model, liver and kidney toxicity (organ weight, ALT, AST)
Assay type: in vivo
Parameters: unit not given here
Settings: i.p. dose of 10 mg/kg/day for 14 days
Description: In one aspect, the present disclosure provides exemplary data relating to the administration of NTRK2 inhibitors in a mouse model of endometriosis (FIG. 14). In certain embodiments, the recipient mouse is administered the NTRK2 inhibitor and/or controls on day 14 after intraperitoneal injection of endometrium of the donor mouse. In certain embodiments, the recipient mouse is sacrificed and quantitatively assessed on day 28.
endpoint label: AST (Mean ± SD)

In [3]: df
Out[3]:
                                   molecule   endpoint_label  reported_value
0  CC(C)N(Cc1ccn2ncc(C(N)=O)c2c1)C(=S)Nc1ccc(OC(F)(F)F)cc1 [CDD-3119]  AST (Mean ± SD)            53.2
1  CN(Cc1ccn2ncc(C(N)=O)c2c1)C(=O)COc1ccc(OC(F)(F)F)cc1 [CDD-3132]  AST (Mean ± SD)            33.5
2  CN(Cc1ccn2ncc(C(N)=O)c2c1)C(=O)Nc1ccc(OC(F)(F)F)cc1 [CDD-3031]  AST (Mean ± SD)            46.9
3  CC(C)(CO)n1cc(C(=O)c2cncc(NC(=O)Cc3ccc(Cl)cn3)c2)c2cnc(N)nc21 [PF-06273340, reference compound]  AST (Mean ± SD)            25.3
